All figures here come from PubChem BioAssay (NCI).

# System: MCF7 breast
# assay.text: NCI tumour cell line growth inhibition, 48 h
recorded.endpoint: TGI

CC1=NN(C(=O)CC(=O)Nc2ccccc2)C(=O)C1N=Nc1ccc(C(=O)O)cc1 (configuration not stated) :: > 100 µM

Please indicate TGI recorded for `CCCNc1[nH]c(C(=O)c2ccccc2)c(N)c1C(=S)Nc1ccccc1` > 100 µM

Please indicate TGI recorded for `CCOC(=O)/C(C#N)=C/c1ccc(SCc2ccco2)c([N+](=O)[O-])c1` > 100 µM

Please indicate TGI recorded for `CC(=O)N(O)CCCCCNC(=O)CCC(=O)N(O)CCCCCNC(=O)CCC(=O)N(O)CCCCCN` > 100 µM

Please indicate TGI recorded for COC(=O)C(Cc1ccc2c(c1)CCCC2)Cc1cc2c(cc1C(O)OC)CCC2 (configuration not stated) 65.1 µM

Please indicate TGI recorded for CC1(O)CCC(C(C)(C)O)CC1 (configuration not stated) > 100 µM

Please indicate TGI recorded for `C(=C1c2ccccc2-c2ccccc21)c1ccncc1` 14.6 µM

Please indicate TGI recorded for `NCCCN1CCN(c2ccccc2)CC1` > 100 µM

Please indicate TGI recorded for `CC(C)c1ccc(/C=C2\N=C(c3ccc([N+](=O)[O-])cc3)OC2=O)cc1` > 100 µM

Please indicate TGI recorded for `CN1CCN(C(=S)N(C(=O)c2ccco2)C2CCCCC2)CC1` > 100 µM

Please indicate TGI recorded for `CC(=O)c1cc(I)c(O)c2ncccc12` > 10 µM

Please indicate TGI recorded for `CC(=N\O)/C(C)=N/O.CC(=N\O)/C(C)=N/O.CC(=N\O)/C(C)=N/O.CC(=N\O)/C(C)=N/O.[CH3-].[CH3-].[Co].[Co]` > 100 µM

* * *

# Test system: SNB-19 CNS
# assay.text: NCI tumour cell line growth inhibition, 48 h
// values below are reported GI50

For orientation, consider the following solved cases.
C[n+]1c2ccccc2c(Nc2ccc(N3CCCCC3)cc2)c2[nH]c3ccccc3c21 :: 0.427 µM
C[C@]12CCC(=O)CC1CC[C@@H]1C2CC[C@@]2(C)C1CC[C@@H]2OC(=O)CC[Se][Se]CCC(=O)O[C@H]1CCC2[C@@H]3CCC4CC(=O)CC[C@]4(C)C3CC[C@@]21C (some centres undefined) :: 2.25 µM

Please indicate GI50 recorded for `COc1ccc2c(c1)[n+]([O-])c(C#N)c(NC(=O)c1cccs1)[n+]2[O-]` > 100 µM

Please indicate GI50 recorded for `Cc1nc2c(o1)C(=O)c1ccccc1C2=Nc1ccccc1` 11 µM

* * *

# System: OVCAR-3 ovarian
# assay.text: NCI tumour cell line growth inhibition, 48 h
// values below are reported TGI
Please state the figure in µM; there is no need to write the unit.

CCOC(=O)c1ccc(NC(=O)O/N=C(/Cl)CC)cc1 :: 3.5

Please indicate TGI recorded for `CN1CCN(CC(=O)N2c3ccccc3Sc3cc4ccccc4cc32)CC1` 26.1

Please indicate TGI recorded for `C/C(=N/OC(=O)c1cccc2c(=O)c3ccccc3[nH]c12)[C@H]1CC[C@H]2[C@@H]3CCC4=C/C(=N/OC(=O)c5cccc6c(=O)c7ccccc7[nH]c56)CC[C@]4(C)[C@H]3CC[C@]12C` 34.4

Please indicate TGI recorded for CC(O)CCc1ccc(Oc2c3ccccc3nc3occc23)cc1 (stereo not given) 26.7

Please indicate TGI recorded for CCOP1(=O)C=CC(Cl)=C(C)C1 (stereo not given) 35

Please indicate TGI recorded for `O=C(CCCCN1CCOCC1)Nc1ccc(Cn2nnc3c2C(=O)c2nnn(Cc4ccc(NC(=O)CCCCN5CCOCC5)cc4)c2C3=O)cc1` 0.559

Please indicate TGI recorded for `C=C1C(=O)O[C@H]2[C@H]1CC/C(COC(=O)CCSSCCC(=O)OC/C1=C/CC[C@@]3(C)O[C@H]3[C@H]3OC(=O)C(=C)[C@@H]3CC1)=C\CC[C@@]1(C)O[C@@H]21` 1.95

Please indicate TGI recorded for `O=c1ccc2nc(C(F)(F)F)nn(-c3ccccc3)c-2c1` 2.95
